biological target: Alpha-2A adrenergic receptor (Homo sapiens); assay type: cell membranes, Sf9, Membrane; conditions: sf9; read-out: IC50; note: in other assays of this panel Not Active means under 50% inhibition at 10 µM
Sequence (P08913 whole entry): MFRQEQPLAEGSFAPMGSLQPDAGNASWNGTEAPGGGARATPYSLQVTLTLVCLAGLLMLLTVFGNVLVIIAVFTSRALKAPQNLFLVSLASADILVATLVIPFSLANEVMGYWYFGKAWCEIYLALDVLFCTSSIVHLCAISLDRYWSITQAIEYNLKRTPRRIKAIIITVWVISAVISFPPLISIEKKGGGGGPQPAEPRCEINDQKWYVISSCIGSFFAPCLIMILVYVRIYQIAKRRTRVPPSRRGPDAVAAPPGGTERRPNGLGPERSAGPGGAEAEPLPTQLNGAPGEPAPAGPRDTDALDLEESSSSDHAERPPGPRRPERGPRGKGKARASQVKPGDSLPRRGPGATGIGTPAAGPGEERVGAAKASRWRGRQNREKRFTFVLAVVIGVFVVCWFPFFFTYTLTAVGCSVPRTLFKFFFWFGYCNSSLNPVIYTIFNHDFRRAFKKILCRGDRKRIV
Measured parameter: IC50

>>> data_value("AURANOFIN")
"884 nM"

###

biological target: Melanocortin receptor 5 (Homo sapiens, UniProt P33032); type: cell membranes, HEK293, Membrane; conditions: hek293; note: in other assays of this panel Not Active means under 50% inhibition at 10 µM
Sequence (P33032 whole entry): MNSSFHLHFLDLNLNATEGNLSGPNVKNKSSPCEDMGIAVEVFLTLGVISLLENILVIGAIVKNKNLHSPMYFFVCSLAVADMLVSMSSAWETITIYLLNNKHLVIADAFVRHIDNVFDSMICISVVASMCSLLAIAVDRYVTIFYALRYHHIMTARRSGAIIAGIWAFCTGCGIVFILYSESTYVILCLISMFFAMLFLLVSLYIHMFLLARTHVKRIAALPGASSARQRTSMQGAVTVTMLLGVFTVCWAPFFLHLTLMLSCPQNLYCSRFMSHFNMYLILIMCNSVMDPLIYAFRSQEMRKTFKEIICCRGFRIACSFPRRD
Measured parameter: IC50

>>> data_value("CCCN(CCC)S(=O)(=O)c1ccc(C(=O)O)cc1")
"Not Active"
>>> data_value("CC(C)c1cccc(C(C)C)c1O")
"Not Active"
>>> data_value("C[C@@H](CO)NC(=O)[C@@H]1C=C2c3cccc4[nH]cc(c34)C[C@H]2N(C)C1")
"Not Active"
>>> data_value("Cn1c(=O)c2[nH]cnc2n(C)c1=O.Cn1c(=O)c2[nH]cnc2n(C)c1=O.NCCN")
"Not Active"
>>> data_value("Oc1cccc(O)c1O")
"Not Active"

###

target: Alpha-2A adrenergic receptor (Homo sapiens); assay type: cell membranes, Sf9, Membrane; conditions: read-out: Ki; note: in other assays of this panel Not Active means under 50% inhibition at 10 µM
Measured parameter: Ki

>>> data_value("COc1cc2nc(N3CCN(C(=O)C4CCCO4)CC3)nc(N)c2cc1OC (stereo not drawn) [TERAZOSIN]")
"5.19 µM"
>>> data_value("CN(C)CC[C@@H](c1ccc(Cl)cc1)c1ccccn1 [DEXCHLORPHENIRAMINE]")
"7.62 µM"
>>> data_value("CC[C@H]1CN2CCc3cc(OC)c(OC)cc3[C@@H]2C[C@@H]1C[C@H]1NCCc2cc(OC)c(OC)cc21 [EMETINE]")
"0.014 µM"

###

biological target: Sodium-dependent noradrenaline transporter (Homo sapiens); assay: DRUGMATRIX: Norepinephrine Transporter radioligand binding (ligand: [125I] RTI-55); assay type: cell membranes, MDCK, Membrane; conditions: mdck; Not Active = under 50% inhibition at 10 µM
Sequence (P23975 whole entry): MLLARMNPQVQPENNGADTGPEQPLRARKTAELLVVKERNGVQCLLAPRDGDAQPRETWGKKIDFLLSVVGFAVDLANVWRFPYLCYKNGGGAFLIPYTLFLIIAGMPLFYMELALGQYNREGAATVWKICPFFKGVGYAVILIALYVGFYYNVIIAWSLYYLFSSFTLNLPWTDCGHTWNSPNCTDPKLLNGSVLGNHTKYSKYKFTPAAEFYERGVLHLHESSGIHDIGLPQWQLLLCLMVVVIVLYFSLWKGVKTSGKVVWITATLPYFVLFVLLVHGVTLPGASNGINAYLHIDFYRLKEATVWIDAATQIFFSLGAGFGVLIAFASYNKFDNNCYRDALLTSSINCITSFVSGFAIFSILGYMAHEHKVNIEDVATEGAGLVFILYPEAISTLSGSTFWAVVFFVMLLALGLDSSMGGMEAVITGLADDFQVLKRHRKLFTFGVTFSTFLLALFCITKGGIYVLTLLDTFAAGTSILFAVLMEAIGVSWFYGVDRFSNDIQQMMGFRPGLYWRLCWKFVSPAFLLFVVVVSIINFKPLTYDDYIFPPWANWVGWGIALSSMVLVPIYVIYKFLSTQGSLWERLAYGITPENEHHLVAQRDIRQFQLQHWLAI
Measured parameter: IC50

>>> data_value("CC(=O)[C@H]1[C@H](C#N)C[C@H]2[C@@H]3CC=C4C[C@@H](O)CC[C@]4(C)[C@H]3CC[C@@]21C")
"Not Active"
>>> data_value("C[C@@H](CO)NC(=O)[C@@H]1C=C2c3cccc4[nH]cc(c34)C[C@H]2N(C)C1")
"Not Active"
>>> data_value("COc1cc([C@@H]2c3cc4c(cc3[C@@H](O[C@@H]3O[C@@H]5CO[C@@H](C)O[C@H]5[C@H](O)[C@H]3O)[C@H]3COC(=O)[C@H]23)OCO4)cc(OC)c1O [ETOPOSIDE]")
"Not Active"
>>> data_value("CC(C)NNC(=O)c1ccncc1")
"Not Active"
>>> data_value("C=CCc1ccc(O)c(OC)c1")
"Not Active"
>>> data_value("COc1ccc(C(=O)N2CCCC2=O)cc1")
"Not Active"
>>> data_value("O=C(Oc1ccccc1C(=O)O)c1ccccc1O [SALSALATE]")
"Not Active"
>>> data_value("O=C1Nc2ccc(Cl)cc2C(c2ccccc2Cl)=NC1O (stereo unspecified)")
"Not Active"
>>> data_value("Oc1c(Cl)cc(Cl)c(Cl)c1Cc1c(O)c(Cl)cc(Cl)c1Cl")
"Not Active"
>>> data_value("Brc1c(NC2=NCCN2)ccc2nccnc12")
"Not Active"
>>> data_value("Cc1cccc(C)c1OCC(C)N (stereo unspecified)")
"Not Active"
>>> data_value("COC(=O)Nc1nc2ccc(C(=O)c3cccs3)cc2[nH]1")
"Not Active"
>>> data_value("COc1cc2nc(N3CCN(C(=O)C4CCCO4)CC3)nc(N)c2cc1OC (stereo unspecified)")
"Not Active"
>>> data_value("CN1[C@@H]2CC[C@H]1C[C@@H](OC(=O)C(CO)c1ccccc1)C2 (stereo partly specified)")
"Not Active"
>>> data_value("CCC1(CCC(C)C)C(=O)NC(=O)NC1=O")
"Not Active"
>>> data_value("Clc1ccccc1CN1CCc2sccc2C1")
"Not Active"

###

assay: DRUGMATRIX: Phorbol Ester radioligand binding (ligand: [3H] PDBu); type: cell membranes, Mus musculus, ICR, Brain, Membrane; conditions: Not Active = under 50% inhibition at 10 µM
Measured parameter: IC50

>>> data_value("Clc1ccccc1CN1CCc2sccc2C1")
"Not Active"
>>> data_value("O=C1C(CC[S+]([O-])c2ccccc2)C(=O)N(c2ccccc2)N1c1ccccc1 (centres undefined)")
"Not Active"
>>> data_value("CCC1(CCC(C)C)C(=O)NC(=O)NC1=O")
"Not Active"
>>> data_value("COC(=O)Nc1nc2ccc(C(=O)c3cccs3)cc2[nH]1")
"Not Active"
>>> data_value("C[C@@H](CO)NC(=O)[C@@H]1C=C2c3cccc4[nH]cc(c34)C[C@H]2N(C)C1")
"Not Active"
>>> data_value("Cc1c(C)c2c(c(C)c1O)CCC(C)(CN1CCN(c3cc(N4CCCC4)nc(N4CCCC4)n3)CC1)O2 (centres undefined)")
"Not Active"
>>> data_value("CN(C/C=C/C#CC(C)(C)C)Cc1cccc2ccccc12")
"Not Active"
>>> data_value("CO[C@@H]1[C@@H](OC)[C@H](C)[C@@](O)(CC(=O)O)O[C@H]1[C@H](C)[C@H]1O[C@@]2(CC[C@@](C)([C@H]3CC[C@@](C)([C@@H]4O[C@@H]([C@H]5O[C@](C)(O)[C@H](C)C[C@@H]5C)C[C@@H]4O[C@@H]4C[C@H](OC)[C@@H](OC)[C@H](C)O4)O3)O2)C[C@H](O)[C@H]1C")
"Not Active"
>>> data_value("O=C(Nc1ccc(Br)cc1)c1cc(Br)cc(Br)c1O")
"Not Active"
>>> data_value("CN(C)[C@@H]1C(O)=C(C(N)=O)C(=O)[C@@]2(O)C(O)=C3C(=O)c4c(O)ccc(Cl)c4[C@@](C)(O)[C@H]3C[C@@H]12")
"Not Active"
>>> data_value("CC(C)(C)NC(=O)[C@H]1CC[C@H]2[C@@H]3CC[C@H]4NC(=O)C=C[C@]4(C)[C@H]3CC[C@]12C [FINASTERIDE]")
"Not Active"
>>> data_value("CO[C@H]1/C=C/O[C@@]2(C)Oc3c(C)c(O)c4c(O)c(c(/C=N/N5CCN(C6CCCC6)CC5)c(O)c4c3C2=O)NC(=O)/C(C)=C\\C=C\\[C@H](C)[C@H](O)[C@@H](C)[C@@H](O)[C@@H](C)[C@H](OC(C)=O)[C@@H]1C")
"Not Active"
>>> data_value("C[C@H]1O[C@@H](n2cc(F)c(=O)[nH]c2=O)[C@H](O)[C@@H]1O")
"Not Active"
>>> data_value("CC(C)NCC(O)c1ccc(NS(C)(=O)=O)cc1 (centres undefined)")
"Not Active"

###

Below, each of the compounds is paired with its reported pIC50 value.
target: Thromboxane-A synthase (Homo sapiens, UniProt P24557); experiment: biochemical; type: tissue-based, Platelet; settings: read-out: IC50;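 note: enzyme inhibition assay with PGH2 supplied as substrate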; note: in other assays of this panel Not Active means under 50% inhibition at 10 µM
Sequence (P24557 whole entry): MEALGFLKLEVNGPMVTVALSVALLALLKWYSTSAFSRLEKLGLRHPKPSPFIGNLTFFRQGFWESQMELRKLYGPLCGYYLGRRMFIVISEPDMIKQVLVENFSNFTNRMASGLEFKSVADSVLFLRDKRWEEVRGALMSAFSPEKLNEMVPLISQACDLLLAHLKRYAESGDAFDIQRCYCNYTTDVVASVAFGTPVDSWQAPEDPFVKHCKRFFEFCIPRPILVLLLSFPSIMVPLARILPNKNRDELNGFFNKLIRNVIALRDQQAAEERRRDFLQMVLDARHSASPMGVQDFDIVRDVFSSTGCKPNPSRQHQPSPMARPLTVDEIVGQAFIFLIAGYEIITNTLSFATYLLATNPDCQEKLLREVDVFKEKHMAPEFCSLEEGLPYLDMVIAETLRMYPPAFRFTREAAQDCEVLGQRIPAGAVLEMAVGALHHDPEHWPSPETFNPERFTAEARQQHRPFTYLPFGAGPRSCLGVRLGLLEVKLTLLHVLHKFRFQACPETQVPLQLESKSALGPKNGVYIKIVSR
pIC50: −log10 of the molar value.
Measured parameter: pIC50

>>> data_value("Cc1ccc(NC(=O)c2ccc(CN3CCN(C)CC3)cc2)cc1Nc1nccc(-c2cccnc2)n1")
6.70
>>> data_value("Clc1ccc(COC(Cn2ccnc2)c2ccc(Cl)cc2Cl)cc1 (stereo not drawn)")
7.54
>>> data_value("Oc1c(Cl)cc(Cl)c(Cl)c1Cc1c(O)c(Cl)cc(Cl)c1Cl")
5.51

###

molecular target: Substance-P receptor (Homo sapiens, UniProt P25103); format: cell membranes, CHO, Membrane; conditions: cho; note: in other assays of this panel Not Active means under 50% inhibition at 10 µM
Sequence (P25103 whole entry): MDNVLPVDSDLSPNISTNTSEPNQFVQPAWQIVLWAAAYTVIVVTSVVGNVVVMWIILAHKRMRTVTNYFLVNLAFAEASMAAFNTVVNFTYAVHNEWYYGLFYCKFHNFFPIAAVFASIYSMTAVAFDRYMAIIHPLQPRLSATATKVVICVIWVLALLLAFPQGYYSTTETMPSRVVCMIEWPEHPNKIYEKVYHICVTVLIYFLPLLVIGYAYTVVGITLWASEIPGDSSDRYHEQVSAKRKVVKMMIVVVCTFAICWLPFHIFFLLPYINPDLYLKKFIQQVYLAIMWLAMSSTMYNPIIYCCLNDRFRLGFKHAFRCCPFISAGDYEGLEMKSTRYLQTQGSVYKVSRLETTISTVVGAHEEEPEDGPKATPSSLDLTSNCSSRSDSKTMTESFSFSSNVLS
Measured parameter: IC50

>>> data_value("CCn1cc(C(=O)O)c(=O)c2cnc(N3CCCC3)nc21")
"Not Active"
>>> data_value("C[C@@H]1O[C@@H](O[C@@H]2C=C3CC[C@@H]4[C@H](CC[C@]5(C)[C@@H](c6ccc(=O)oc6)CC[C@]45O)[C@@]3(C)CC2)[C@H](O)[C@H](O)[C@H]1O")
"Not Active"
>>> data_value("CC(C)Oc1ccc2c(=O)c(-c3ccccc3)coc2c1")
"Not Active"
>>> data_value("CCN(CC)CCOCCC1=CCC2CC1C2(C)C (configuration not stated)")
"Not Active"
>>> data_value("O=c1cnn([C@@H]2O[C@H](CO)[C@@H](O)[C@H]2O)c(=O)[nH]1")
"Not Active"
>>> data_value("O=C(N/N=C/c1ccc([N+](=O)[O-])o1)c1cc([N+](=O)[O-])cc([N+](=O)[O-])c1O")
"Not Active"
>>> data_value("C[C@@H]1C[C@H]2[C@@H]3CCC4=CC(=O)C=C[C@]4(C)[C@@]3(F)[C@@H](O)C[C@]2(C)[C@@]1(O)C(=O)CO")
"Not Active"
>>> data_value("O=C(O)c1cn(-c2ccc(F)cc2)c2cc(N3CCNCC3)c(F)cc2c1=O")
"Not Active"
>>> data_value("O=C(O)CCNC(=O)c1ccccc1")
"Not Active"
>>> data_value("CC(C)NCC(O)c1ccc(NS(C)(=O)=O)cc1 (configuration not stated)")
"Not Active"
>>> data_value("CN1[C@@H]2CC[C@H]1C[C@@H](OC(=O)C(CO)c1ccccc1)C2 (some centres not stated)")
"Not Active"
>>> data_value("N=C(N)NC(=O)Cc1c(Cl)cccc1Cl")
"Not Active"
>>> data_value("Cc1c(C)c2c(c(C)c1O)CCC(C)(CN1CCN(c3cc(N4CCCC4)nc(N4CCCC4)n3)CC1)O2 (configuration not stated)")
"Not Active"
>>> data_value("O.O.O.O.O.O.[Cl-].[Cl-].[Sr+2] [STRONTIUM CHLORIDE HEXAHYDRATE]")
"Not Active"
>>> data_value("CO[C@H]1/C=C/O[C@@]2(C)Oc3c(C)c(O)c4c(O)c(c(/C=N/N5CCN(C6CCCC6)CC5)c(O)c4c3C2=O)NC(=O)/C(C)=C\\C=C\\[C@H](C)[C@H](O)[C@@H](C)[C@@H](O)[C@@H](C)[C@H](OC(C)=O)[C@@H]1C")
"Not Active"
>>> data_value("Cc1nnc2n1-c1ccc(Cl)cc1C(c1ccccc1)=NC2")
"Not Active"
>>> data_value("O=C(Nc1ccc(Br)cc1)c1cc(Br)cc(Br)c1O")
"Not Active"

Cited source for all entries: ChEMBL document CHEMBL1909046
